These entries and their values trace back to PubChem BioAssay (NCATS).

test: Cellular viability qHTS for adrenocortical cancer (ACC) cell line NCI-H295R (AID 1963990); conditions: CellTiter-Glo ATP luminescence, 48 h; series mostly up to 46.1 µM; note: nearly all actives have a fitted effect of over 60% in size
Records with an inconclusive call do not appear. Activity calls are given as the source filed them. Calls come from the whole dose curve; as a rule, active = well fitted cell-killing curve with a large enough effect; inconclusive = small, poorly fitted or top-dose-only effect; inactive = flat fitted curve, though single readings scatter.
Classes used: active, inactive

molecule="CC1c2cccc(O)c2C(O)=C2C(=O)C3(O)C(O)=C(C(N)=O)C(=O)C(N(C)C)C3C(O)C21 (centres undefined)" classification=inactive
molecule=C[C@H]1O[C@H](O[C@H]2[C@H](O)[C@@H](O)[C@@H](O[C@H]3[C@H](O)[C@@H](O)[C@H](O)O[C@@H]3CO)O[C@@H]2CO)[C@H](O)[C@@H](O)[C@@H]1N[C@H]1C=C(CO)[C@@H](O)[C@H](O)[C@H]1O classification=inactive
molecule=C[C@@]12O[C@@H](C[C@]1(O)CO)n1c3ccccc3c3c4c(c5c6ccccc6n2c5c31)CNC4=O classification=active
molecule=CCCCCCCC(=O)[O-].CCCCCCCC(=O)[O-].[Zn+2] classification=inactive

* * *

assay: Cellular viability qHTS for adrenocortical cancer (ACC) cell line SW-13 (AID 1963989); conditions: SW-13 ACC cells viability, CellTiter-Glo, 48 h; hits give low values;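 note: cells grown in serum-free medium with ITS supplement; % is set by controls: 0 for no effect and ±100 for the full control effect; nearly all actives have a fitted effect of over 65% in size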
Results filed as inconclusive are left out.
measure: activity (max response) (%)

compound="CC(=O)OCC(=O)[C@@]1(O)CCC2C3CCC4=CC(=O)CC[C@]4(C)C3[C@@H](O)C[C@@]21C (stereo partly specified)" measure="activity (max response)" value_reported=-1.87
compound="CC(C)NCC(O)c1ccc2ccccc2c1 (stereo unspecified)" measure="activity (max response)" value_reported=8.99
compound=NC(N)=NC(=O)Cc1c(Cl)cccc1Cl measure="activity (max response)" value_reported=-7.72
compound="COc1cc2c(cc1OC)C1CC(=O)C(CC(C)C)CN1CC2 (stereo unspecified)" measure="activity (max response)" value_reported=-1.87
compound=C[C@@H]1CC(=O)Nc2cccc(-c3ccc4c(c3)c(-c3cnn(C)c3)nn4C)c2N1 measure="activity (max response)" value_reported=-3.66
compound=CC1(C)S[C@@H]2[C@H](N=CN3CCCCCC3)C(=O)N2[C@H]1C(=O)O measure="activity (max response)" value_reported=3.39

* * *

test: Quantitative highthroughput screen to assess conditional lethalithy of P12 Ichikawa cells grown in RPMI1640 with dialyzed fetal bovine serum (RPMI+ds) (AID 1963880); conditions: ATP luminescence, 48 h; P12-Ichikawa viability; series mostly up to 45.8 µM; note: nearly all actives have a fitted effect of over 35% in size; note: potency is the fitted concentration of half-maximal effect;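 for viability: 100% = DMSO wells and 0% = empty wells on each plate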
Results filed as inconclusive are left out. Active and inactive are the calls of the source. The call rests on the fitted dose curve; in most records, active means well fitted cell-killing curve with a large enough effect; inconclusive means small, poorly fitted or top-dose-only effect; inactive means flat fitted curve, though single readings scatter.
measure: Potency

smiles_repr=Cc1cnc(Nc2ccc(OCCN3CCCC3)cc2)nc1Nc1cccc(S(=O)(=O)NC(C)(C)C)c1 value_reported=inactive
smiles_repr=CC(C)(C)C(=O)Oc1ccc(S(=O)(=O)Nc2ccccc2C(=O)NCC(=O)O)cc1 value_reported=inactive
smiles_repr=Cc1nnc(NS(=O)(=O)c2ccc(N)cc2)s1 value_reported="13.2 µM (active)"
smiles_repr=CCCS(=O)(=O)Nc1ccc(F)c(C(=O)c2c[nH]c3ncc(-c4ccc(Cl)cc4)cc23)c1F value_reported=inactive
smiles_repr=CCC(CC)[C@H](NC(C)=O)[C@@H]1[C@H](O)[C@@H](C(=O)O)C[C@@H]1N=C(N)N value_reported=inactive

* * *

experiment: Viability qHTS for spleen associated tyrosine kinase inhibitor (SYKi) naive MV4-11 cells (AID 1963823); settings: MV4-11 AML viability, CellTiter-Glo luminescence, 72 h; series mostly up to 45 µM; note: nearly all actives have a fitted effect of over 40% in size; note: potency is the fitted concentration of half-maximal effect
Inconclusive results are not listed. Calls of active or inactive are those of the source. Calls come from the whole dose curve; as a rule, active = well fitted cell-killing curve with a large enough effect; inconclusive = small, poorly fitted or top-dose-only effect, or effect the other way; inactive = no such curve, though single readings can be large or run the other way.
measure: Potency

molecule=NC(=O)Nc1cc(-c2ccc(CN3CCOCC3)cc2)sc1C(N)=O value_reported="209 nM (active)"
molecule="C=CC1C(OC2OC(CO)C(O)C(O)C2O)OC=C(C(=O)OC)C1CC1CC(=O)CC(CCc2ccc(O)cc2)O1 (stereo not given)" value_reported=inactive
molecule="COc1cc(C2Oc3c(OC)cc(CCCO[C@@H]4O[C@H](CO)[C@@H](O)[C@H](O)[C@H]4O)cc3C2CO)ccc1O (stereo not given in full)" value_reported=inactive
molecule=CC1(C)[C@@H]2CC[C@@]1(C)C(=O)C2 value_reported=inactive
molecule="C/C(=C\\CCC(C)CCO)C(=O)OC[C@H]1O[C@@H](O[C@@H]2OC=C(C(=O)O)[C@H]3CC[C@](C)(O)[C@@H]23)C(O)[C@@H](O)C1O (stereo not given in full)" value_reported=inactive

* * *

assay: Viability qHTS for spleen associated tyrosine kinase inhibitor (SYKi) naive MV4-11 cells (AID 1963823); details: MV4-11 AML viability, CellTiter-Glo luminescence, 72 h; series mostly up to 45 µM; note: nearly all actives have a fitted effect of over 40% in size
Results filed as inconclusive are left out. Activity calls are given as the source filed them. Calls follow the shape of the dose curve; as a rule, active = well fitted cell-killing curve with a large enough effect; inconclusive = small, poorly fitted or top-dose-only effect, or effect the other way; inactive = no such curve, though single readings can be large or run the other way.
Classes used: active, inactive

compound=Cc1cc(Nc2nc(N[C@@H](C)c3ccc(F)cc3)c(C#N)cc2F)n[nH]1 classification=active
compound=CC/C=C(\C(=O)N[C@@H]1C(=O)N2C(C(=O)OCOC(=O)C(C)(C)C)=C(COC(N)=O)CS[C@H]12)c1csc(N)n1 classification=inactive
compound=O=C(Nc1cccc(C(F)(F)F)c1)c1ccccc1NCc1ccncc1 classification=active
compound=CN(C)CCn1nnnc1SCC1=C(C(=O)O)N2C(=O)[C@@H](NC(=O)Cc3csc(N)n3)[C@H]2SC1 classification=inactive
compound="COc1ccc(-c2cc3c(C)nc(N)nc3n(C3CCC(OCCO)CC3)c2=O)cn1 (centres undefined)" classification=active
compound=O=C(O)c1cc(O[C@@H]2O[C@H](CO)[C@@H](O)[C@H](O)[C@H]2O)ccc1O classification=inactive
compound=Cc1ccc(C2(C(=O)N3CCC(n4nc(-c5ccccc5)oc4=O)CC3)CC2)cc1 classification=inactive
compound=Cn1cnc2c(NCc3ccccc3)nc(NCCO)nc21 classification=inactive
compound=Cc1nnc(-c2sc(NC(=O)[C@H](C(C)C)n3c(=O)[nH]c4ccccc4c3=O)nc2C)o1 classification=inactive
compound=OC[C@@H](O)[C@@H](O)[C@H](O)[C@@H](O)CO classification=inactive
compound="C[N+]1(CC2COC(c3ccccc3)(C3CCCCC3)O2)CCCCC1 (centres undefined)" classification=active
compound=COC(=O)c1ccccc1O[C@@H]1O[C@H](CO[C@@H]2OC[C@@H](O)[C@H](O)[C@H]2O)[C@@H](O)[C@H](O)[C@H]1O classification=inactive
compound=CNCc1ccccc1 classification=inactive
compound=CC(C)C(=O)Nc1ncc(-c2cc(C(F)F)nn2-c2c(Cl)cccc2Cl)s1 classification=active
compound="CC(C)NC(=O)C1CCC(n2c(NC(=O)c3ccc(F)cc3)nc3ccc(CN4CCC(C(C)(C)O)CC4)cc32)CC1 (centres undefined)" classification=active
compound=C=CC(=O)N1CCC(CNc2ncnc(N)c2-c2ccc(Oc3ccccc3)cc2)CC1 classification=active
compound=C[C@]12CC[C@@H]3c4ccc(O[C@@H]5O[C@H](C(=O)O)[C@@H](O)[C@H](O)[C@H]5O)cc4CC[C@H]3[C@@H]1CCC2=O classification=inactive
compound=CCCC(=O)C1CCN(c2ncnc3c2CN(C(=O)c2ccc(-c4ccccc4)cc2)CC3)CC1 classification=active
compound=Oc1ccc(CCNCCCCCCNCCc2ccccc2)cc1O classification=active

* * *

# Lookup of reported viability, % of control keyed by entry
experiment: Viability qHTS for spleen associated tyrosine kinase inhibitor (SYKi) drug resistant MV4-11 cells (AID 1963824); settings: SYKi-resistant MV4-11 viability, CellTiter-Glo, 72 h; series mostly up to 45 µM; note: nearly all actives have a fitted effect of over 35% in size
Inconclusive results are not listed. Active and inactive are the calls of the source. Calls come from the whole dose curve; as a rule, active = well fitted cell-killing curve with a large enough effect; inconclusive = small, poorly fitted or top-dose-only effect, or effect the other way; inactive = no such curve, though single readings can be large or run the other way.
measure: viability, % of control

compound=C/C=C(\C)C(=O)OC[C@H]1O[C@@H](O[C@H]2[C@@H](O[C@H]3O[C@H](COC(=O)/C(C)=C/C)[C@@H](O)[C@H](O)[C@H]3O[C@@H]3O[C@H](COC(=O)/C(C)=C/C)[C@@H](O)[C@H](OC(=O)/C(C)=C/C)[C@H]3O)O[C@H](COC(=O)/C(C)=C/C)[C@@H](O)[C@@H]2O)[C@H](O)[C@@H](O)[C@@H]1O value_reported="65.9% [at 9.25 µM] (inactive)"
compound="CC1(C)CC[C@]2(C(=O)O[C@@H]3O[C@H](CO[C@@H]4O[C@H](CO)[C@@H](O)[C@H](O)[C@H]4O)[C@@H](O)[C@H](O[C@@H]4O[C@H](CO)[C@@H](O)[C@H](O)[C@H]4O)[C@H]3O)[C@H](O)C[C@]3(C)C(=CCC4[C@@]5(C)CC[C@H](O[C@@H]6OC[C@@H](O)[C@H](O)[C@H]6O)[C@@](C)(C(=O)O)C5CC[C@]43C)[C@@H]2C1 (some centres undefined)" value_reported="65.4% [at 9.25 µM] (inactive)"
compound=C/C(=C(\CCOP(=O)(O)O)SC(=O)c1ccccc1)N(C=O)Cc1cnc(C)nc1N value_reported="78.4% [at 4.97 µM] (inactive)"
compound=NC[C@@H]1O[C@@H](O[C@@H]2[C@@H](O[C@@H]3O[C@H](CO)[C@@H](O)[C@H]3O)[C@H](O)[C@@H](N)C[C@H]2N)[C@@H](N)[C@H](O)[C@H]1O value_reported="93.2% [at 9.25 µM] (inactive)"
compound=CC(C)(S)[C@@H](N)C(=O)O value_reported="89% [at 4.97 µM] (inactive)"
compound="C[C@@H]1O[C@@H](O[C@H]2[C@H](OC(=O)[C@]34CCC(C)(C)C[C@H]3C3=CCC5[C@@]6(C)C[C@H](O)[C@H](O[C@@H]7O[C@H](CO[C@@H]8OC[C@H](O)[C@H](O)[C@H]8O)[C@@H](O)[C@H](O)[C@H]7O)C(C)(C)C6CC[C@@]5(C)[C@]3(C)C[C@H]4O)OC[C@@H](O)[C@@H]2O)[C@H](O)[C@H](O[C@@H]2OC[C@](O)(CO)[C@H]2O)[C@H]1O[C@@H]1OC[C@H](O)[C@H](O[C@@H]2OC[C@@H](O)[C@H](O)[C@H]2O)[C@H]1O (some centres undefined)" value_reported="85% [at 9.25 µM] (inactive)"
compound=C/C=C(\C)C(=O)OC[C@H]1O[C@@H](O[C@H]2[C@@H](O[C@H]3O[C@H](CO)[C@@H](O)[C@H](O)[C@H]3O[C@@H]3O[C@H](CO)[C@@H](O)[C@H](O)[C@H]3O)O[C@H](COC(=O)/C(C)=C/C)[C@@H](O)[C@@H]2O)[C@H](O)[C@@H](O)[C@@H]1O value_reported="79.8% [at 9.25 µM] (inactive)"
compound=Cc1cc(O)cc2c1[C@]1(C)CC[C@H]3C(C)(C)CCC[C@]3(C)[C@H]1C2 value_reported="59.2% [at 4.97 µM] (inactive)"
compound=CCCCCCc1cccc(NC(=O)[C@H](N)CCP(=O)(O)O)c1 value_reported="99.2% [at 9.25 µM] (inactive)"
